Target: human ALK5 (kinase domain, ALK5 T204D) (Homo sapiens, UniProt P36897, T204D)
Construct: The kinase domain of human ALK5 (amino acids 200-503); made in house; host or cells: insect cells (baculovirus)
Sequence (P36897 200-503 T204D): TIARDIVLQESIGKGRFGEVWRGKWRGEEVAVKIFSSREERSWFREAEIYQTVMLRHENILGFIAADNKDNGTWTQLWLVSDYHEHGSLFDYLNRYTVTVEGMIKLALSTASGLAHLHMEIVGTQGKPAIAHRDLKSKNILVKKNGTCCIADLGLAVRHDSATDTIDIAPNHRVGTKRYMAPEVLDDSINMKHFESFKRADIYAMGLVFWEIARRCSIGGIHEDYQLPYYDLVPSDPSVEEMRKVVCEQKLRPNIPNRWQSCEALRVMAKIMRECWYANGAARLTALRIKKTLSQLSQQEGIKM
Test: ALK5 kinase assay ([33P] phosphate incorporation into casein)
Assay type: biochemical
Conditions: casein substrate, 1 μM unlabelled ATP
Result type: IC50 (nM)

Take a look at these entries with their results.
Query block: Requested field: IC50. Item: CNCc1cncc(-c2cncc(-c3nc(-c4cccc(C)n4)nc4[nH]ccc34)c2)c1
Result block: 117

Query block: Reported IC50 for Cc1cccc(-c2cc(-c3cncc(-c4ccc(C(C)(C)NCCO)cc4)c3)c3cc[nH]c3n2)n1 : what is it?
Result block: 7

Query block: # query: IC50 of entry Cc1cccc(-c2cc(-c3cncc(NC(=O)CCN(C)C)c3)c3cc[nH]c3n2)n1
Result block: 40

Query block: Query: IC50; subject: Cc1cccc(-c2nc(-c3cncc(-c4ccncc4)c3)c3cc[nH]c3n2)n1
Result block: 84

Query block: Reported IC50 for Cc1cccc(-c2cc(-c3cncc(-c4ccc(CN5CCN(C(C)C)CC5)cc4)c3)c3cc[nH]c3n2)n1 : what is it?
Result block: 9

(P) Cc1cccc(-c2nc(-c3cncc(NC(=O)CCN(C)C)c3)c3cc[nH]c3n2)n1
(Q) Cc1cccc(-c2nc(-c3cncc(N4CCN(C)CC4)c3)c3cc[nH]c3n2)n1
Query block: Smaller IC50 value? Options are P and Q Choose, then provide that item's label.
Result block: P

* * *

Target: human ALK5 (kinase domain, ALK5 T204D) (Homo sapiens, UniProt P36897, T204D)
Construct: The kinase domain of human ALK5 (amino acids 200-503)
Assay: ALK5 kinase assay ([33P] phosphate incorporation into casein)
Settings: casein substrate, 1 μM unlabelled ATP
Experimental: The kinase activity of ALK5 is assessed by measuring radiolabelled phosphate [33P] incorporation in to the generic substrate, casein. The kinase domain of human ALK5 (amino acids 200-503) is fused to an N-terminal histidine tag. […] Test compounds and reference compounds are dissolved in assay buffer without DTT containing 5% (v/v) DMSO. […] Total enzyme activity is determined by measuring ALK5 T204D activity in the absence of ALK5 kinase inhibitor reference compounds. […]
Result type: IC50 (nM)

Solved entries:
Query block: Look up IC50: Cc1cccc(-c2nc(-c3cncc(C(=O)NCCCN(C)C)c3)c3cc[nH]c3n2)n1
Result block: 177

Query block: What value of IC50 has been reported for the following compound? Cc1cccc(-c2nc(-c3cncc(-c4cccc(CN5CCOCC5)c4)c3)c3cc[nH]c3n2)n1
Result block: 24

Query block: Which IC50 value belongs to Cc1cccc(-c2nc(-c3cncc(-c4ccc(C(=O)N5CCN(C)CC5)cc4)c3)c3cc[nH]c3n2)n1 ?
Result block: 13

Query block: Would you kindly share the measured IC50 for Cc1cccc(-c2nc(-c3cncc(C4=CCN(C)CC4)c3)c3cc[nH]c3n2)n1 ?
Result block: 532

Query block: Quick one: IC50 of Cc1cccc(-c2nc(-c3cncc(C(=O)NCCN(C)C)c3)c3cc[nH]c3n2)n1 ?
Result block: 345

(1) Cc1cccc(-c2nc(-c3cncc(C#CCN4CCN(C)CC4)c3)c3cc[nH]c3n2)n1
(2) Cc1cccc(-c2cc(-c3cncc(-c4cnn(C)c4)c3)c3cc[nH]c3n2)n1
(3) Cc1cccc(-c2nc(-c3cncc(-c4cccc(C5CCCN5)c4)c3)c3cc[nH]c3n2)n1 (centres unmarked)
(4) CCC(=O)Nc1cncc(-c2nc(-c3cccc(C)n3)nc3[nH]ccc23)c1
(5) Cc1cccc(-c2cc(-c3cncc(-c4ccc(C(C)(C)N)cc4C)c3)c3cc[nH]c3n2)n1
Query block: Reorder the items by IC50, least to greatest. Ranked list of labels, please, in the requested order.
Result block: 2, 5, 3, 1, 4

(a) CCOc1cncc(-c2cc(-c3cccc(C)n3)nc3[nH]ccc23)c1
(b) Cc1cccc(-c2nc(-c3cncc(C#N)c3)c3cc[nH]c3n2)n1
Query block: Endpoint returns whichever of a and b has the numerically higher IC50. In your reply, give the label of the chosen option.
Result block: b

(a) Cc1cccc(-c2nc(-c3cncc(-c4cccc(CN)c4)c3)c3cc[nH]c3n2)n1
(b) Cc1cccc(-c2cc(-c3cncc(-c4ccc(CO)cc4)c3)c3cc[nH]c3n2)n1
(c) Cc1cccc(-c2nc(-c3cnc4ccccc4c3)c3cc[nH]c3n2)n1
Query block: Rank by IC50 (largest to smallest). Form entry: ranked labels (order as requested).
Result block: c, a, b

(I) Cc1cccc(-c2cc(-c3cncc(-c4ccc(CNCCO)cc4)c3)c3cc[nH]c3n2)n1
(II) CC(=O)N1CC=C(c2cncc(-c3nc(-c4cccc(C)n4)nc4[nH]ccc34)c2)CC1
Query block: Between these two entries, I and II , state which has the higher IC50. // return label of chosen record
Result block: II
(II: 133 nM, I: 3.3 nM)

(P) Cc1cccc(-c2cc(-c3cncc(-c4ccc(CN(C)C)cn4)c3)c3cc[nH]c3n2)n1
(Q) CNCc1cncc(-c2cncc(-c3cc(-c4cccc(C)n4)nc4[nH]ccc34)c2)c1
Query block: Quick check, higher IC50 between P and Q ? Your choice should be expressed through its label.
Result block: Q
(Q: 103 nM, P: 8 nM)

(a) Cc1cccc(-c2cc(-c3cncc(-c4ccc(CN(C)CCO)cc4)c3)c3cc[nH]c3n2)n1
(b) Cc1cccc(-c2nc(-c3cncc(-c4ccc(CN)cc4)c3)c3cc[nH]c3n2)n1
(c) Cc1cccc(-c2cc(-c3cncc(-c4ccc(CNCCC(=O)O)cc4)c3)c3cc[nH]c3n2)n1
(d) Cc1cccc(-c2nc(-c3cncc(CO)c3)c3cc[nH]c3n2)n1
Query block: // sort entries: IC50, high to low Answer format: the labels, in the requested order.
Result block: d, b, a, c

(a) Cc1cccc(-c2cc(-c3cncc(-c4cccc(CN(C)CC(=O)O)c4)c3)c3cc[nH]c3n2)n1
(b) CN1CCN(Cc2ccc(-c3cncc(-c4nc(-c5ccccn5)nc5[nH]ccc45)c3)cc2)CC1
(c) COC(=O)CNCc1cccc(-c2cncc(-c3cc(-c4cccc(C)n4)nc4[nH]ccc34)c2)c1
(d) Cc1cncc(-c2nc(-c3cccc(C)n3)nc3[nH]ccc23)c1
Query block: Please list these in order of increasing IC50. Thank you! Reply with the item labels sorted in the order that was asked for.
Result block: b, c, a, d
(b: 6 nM, c: 10 nM, a: 30 nM, d: 751 nM)

(P) COC(=O)CNCc1ccc(-c2cncc(-c3cc(-c4cccc(C)n4)nc4[nH]ccc34)c2)cc1
(Q) Cc1cccc(-c2nc(-c3cncc(-c4ccc(CN(C)C)cc4)c3)c3cc[nH]c3n2)n1
Query block: I'm curious, which of these has a smaller IC50 number: P or Q ? Identify your selection by its label.
Result block: P
